pIC50: −log10 of the molar value.
Please find below pIC50 data on TGF-beta receptor type-1 (Homo sapiens, UniProt P36897) compiled from the literature.
Sequence (P36897 whole entry): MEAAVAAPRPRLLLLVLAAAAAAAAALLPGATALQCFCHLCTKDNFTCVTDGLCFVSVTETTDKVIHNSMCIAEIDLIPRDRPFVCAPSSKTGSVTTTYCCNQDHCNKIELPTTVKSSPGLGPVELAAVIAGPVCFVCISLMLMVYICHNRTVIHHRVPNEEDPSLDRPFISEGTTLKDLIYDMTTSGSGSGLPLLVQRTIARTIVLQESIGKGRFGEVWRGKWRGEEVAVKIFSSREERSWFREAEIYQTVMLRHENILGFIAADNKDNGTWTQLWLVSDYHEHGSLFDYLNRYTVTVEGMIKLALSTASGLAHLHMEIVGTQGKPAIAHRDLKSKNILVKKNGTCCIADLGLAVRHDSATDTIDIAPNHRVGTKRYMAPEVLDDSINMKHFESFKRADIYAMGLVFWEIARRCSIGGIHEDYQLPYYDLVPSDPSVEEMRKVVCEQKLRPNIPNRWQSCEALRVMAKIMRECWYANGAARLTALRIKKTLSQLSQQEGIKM
Measurement Type: pIC50

# annotated cases, reported pIC50 shown
CC(C)NC(=O)c1ccc2c(c1)NC(=O)/C2=C(\Nc1ccc(CN2CCCCC2)cc1)c1ccccc1 ... 6.50
Cc1csc(/C=C\c2ccc3ncc(C(N)=O)n3c2)n1 ... 7.48
C#Cc1ccc(NCc2nc(-c3ccc4c(c3)OCO4)c(-c3cccc(C)n3)[nH]2)cc1 ... 6.76
COc1ccc(OC)c(/C=C/C(=O)Nc2sc3c(c2C#N)CCCC3)c1 ... 7.06
Oc1cc(Nc2ccnc3cc(-c4ccccc4)ccc23)ccc1Cl ... 7.10

I = C=Cn1cnc2ccc(-c3ccnn3-c3cccc(C)n3)cc2c1=O
II = c1ccc(-c2n[nH]cc2-c2ccc3ncccc3n2)nc1
III = C#Cc1cccc(NCc2nc(-c3ccc4nccnc4c3)c(-c3cccc(CC)n3)[nH]2)c1
Qu. Kindly order the items shown according to pIC50, from the highest value down. Please list the labels in the order you were asked to rank them.
Ans. I, II, III
(I: 8.40, II: 7.72, III: 6.92)
